Biological target: µ opioid receptor of the guinea pig isolated ileum (guinea pig)
Assay: cell-based or functional assay
Square brackets hold non-standard residues; d marks the D form. * marks the point of attachment. OBzl(3,5-(CF3)2) = FC(F)(F)c1cc(CO*)cc(C(F)(F)F)c1; Met(O) = CS(=O)CC[C@H](N)C(=O)O
measurement.label: GPI (µ) opioid agonist IC50 (nM)
Express it in nM; write the number only.

Sample H-Y[dA]GFGPLW-{OBzl(3,5-(CF3)2)} (also: TFA salt, TFA salt; also called TY006) [H-Tyr-D-Ala-Gly-Phe-Gly-Pro-Leu-Trp-O-3,5-Bzl(CF3)2] — what was its GPI (µ) opioid agonist IC50?
384

Sample H-Y[dA]GFLPLW-{OBzl(3,5-(CF3)2)} (also: TFA salt, TFA salt; also called TY004) [H-Tyr-D-Ala-Gly-Phe-Leu-Pro-Leu-Trp-O-3,5-Bzl(CF3)2] — what was its GPI (µ) opioid agonist IC50?
341

Sample H-Y[dA]GF[Met(O)]PLW-{OBzl(3,5-(CF3)2)} (also: TFA salt, TFA salt; also called TY023) [H-Tyr-D-Ala-Gly-Phe-Met(O)-Pro-Leu-Trp-O-3,5-Bzl(CF3)2] — what was its GPI (µ) opioid agonist IC50?
154

Sample YAGFXPLW (D-Ala at 2; Nle (norleucine, written X) at 5; C-terminal 3,5-bis(trifluoromethyl)benzyl ester, TFA salt; also called TY018) [H-Tyr-D-Ala-Gly-Phe-Nle-Pro-Leu-Trp-O-3,5-Bzl(CF3)2] — what was its GPI (µ) opioid agonist IC50?
372

Sample H-Y[dA]GFMPLW-{OBzl(3,5-(CF3)2)} (also: TFA salt, TFA salt; also called TY005; TY5) [H-Tyr-D-Ala-Gly-Phe-Met-Pro-Leu-Trp-O-3,5-Bzl(CF3)2] — what was its GPI (µ) opioid agonist IC50?
359

This collection of values is drawn from patent US8026218.
